Overview of recorded self-cleavage for various variants
B1: Hairpin Ribozyme (parent)
chain: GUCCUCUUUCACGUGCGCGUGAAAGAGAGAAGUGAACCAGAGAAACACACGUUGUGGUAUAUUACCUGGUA

Variants of: B1
test_protocol: self-cleavage, relative activity (ratio to wild type); higher = more cleavage; co-transcriptional

# residues, self-cleavage
rows = [
    ("CUCCUCUUUCACGUGCGCGUGAAAGAGAGAAGUGAACCAAAGAAACACACGUUGUGGUAUAUUACCUGGUA [G1C G40A]", 0.0839),
    ("GUCCUCUUUCACGCGCGCGUGAAAGAGAGAAGUGAACCAGAGAAACACACGUUGUGGUAUGUUACCUGGUA [U14C A61G]", 0.133),
    ("GUCUUCUUUCACGUGCGCGUGAAAGAGAGAAGUGAACCAGAGAAACACACGUUGUGGUAUAUUACCAGGUA [C4U U67A]", 0.121),
    ("GUCCUCUUUCACGUGCGCGUGAACGAGAGAAGUGAACCAGAGAAACACACGUUGUGCUAUAUUACCUGGUA [A24C G57C]", 0.131),
    ("GUCCUCUUUCACGUGCGCGUGAAAGAGUGAAGUGAACCAGAGAAACACACGUUGUGGUAUAUUAGCUGGUA [A28U C65G]", 0.151),
    ("GUCCUCUUUCACGUGCGCGUGAAAGAGAGAAGUCAACCAGAGAAACACACGUUGUGGUAUAUUGCCUGGUA [G34C A64G]", 0.792),
    ("GUCCUCUUUCACGUGCGCGUGAAAGAGAGAAGCGAACCAGAGUAACACACGUUGUGGUAUAUUACCUGGUA [U33C A43U]", 0.231),
    ("GCCCUCUUUCACGUGCGCGUGAAAGAGAGAAGUGAACCAGAGCAACACACGUUGUGGUAUAUUACCUGGUA [U2C A43C]", 0.0996),
    ("GUCCUCUUUCACGUGCGCGUGAAAGAGAGAAGUGAACCAGUGAAACACACGUUGUGGUAUAGUACCUGGUA [A41U U62G]", 0.202),
    ("GCCCUCUUUUACGUGCGCGUGAAAGAGAGAAGUGAACCAGAGAAACACACGUUGUGGUAUAUUACCUGGUA [U2C C10U]", 0.159),
    ("GUCCUCUUUCACGUGCGCGUAAAAGAGAGAAGUGAACCAGAGUAACACACGUUGUGGUAUAUUACCUGGUA [G21A A43U]", 0.123),
    ("GUCCUCUUUCACGCGCGCGUGGAAGAGAGAAGUGAACCAGAGAAACACACGUUGUGGUAUAUUACCUGGUA [U14C A22G]", 0.864),
    ("GUCCUCGUUCACGUGCGCGUGAAAGAGAGAUGUGAACCAGAGAAACACACGUUGUGGUAUAUUACCUGGUA [U7G A31U]", 0.216),
    ("GUCCUCUUUCACGUGCGAGUGAAAGAGAGAAGUGAACCAGAGAAACACACGUUGUAGUAUAUUACCUGGUA [C18A G56A]", 0.158),
    ("GUACUCUUUCACGUGCGCGUGAAAGAGAGAACUGAACCAGAGAAACACACGUUGUGGUAUAUUACCUGGUA [C3A G32C]", 0.114),
    ("GUCUUCUUUCACGUGCGCGUGAAAGAGAGAAGUGAACCAGGGAAACACACGUUGUGGUAUAUUACCUGGUA [C4U A41G]", 0.299),
    ("GUCCUCUUUCACGUGCGCGUGCAAGAGAGAAGUGAACCAGAGAAACACACGUUGUGGUUUAUUACCUGGUA [A22C A59U]", 0.104),
]
